For each of the molecules below, state its Support amount ratio (=example/comparative example).
TEST_PROTOCOL: Comparison of supported amounts by HPLC (Test Example 8)
Type: physicochemical
RECORDED_CONDITIONS: porous Example 6 microparticles (Examples 10 to 15) versus raw material ethyl cellulose powder (Comparative Examples 6 to 11)
Protocol: The supported amount ratio of a physiologically active substance between microparticles in an example and microparticles in a comparative example supporting the same physiologically active substance was calculated on the basis of the following equation. HPLC measurement was carried out as follows. […] The sample was measured under the same conditions as for Test Example 5.
Structures can show the parent of a compound that is named as a salt.

Reference set (5 entries):
O=C(O)c1ccccc1O | 1.6
Cn1c(=O)c2[nH]cnc2n(C)c1=O | 1.2
C=C[C@H]1C[N@@]2CC[C@H]1C[C@H]2[C@H](O)c1ccnc2ccc(OC)cc12 [Quinine hydrochloride dihydrate, quinine hydrochloride dihydrate] | 1.8
Cc1ncc(C[n+]2csc(CCO)c2C)c(N)n1 [Thiamine hydrochloride, thiamine hydrochloride] | 10.7
CC(=O)Nc1ccc(O)cc1 | 1.4

Consider now this further molecule.
Which Support amount ratio (=example/comparative example) value belongs to CC(C)Cc1ccc(C(C)C(=O)O)cc1 (stereo not drawn) ? 1.2
